- Test system: 349418-098-R-PDC complex spheroid viability;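 further: spheroids exposed to agents for seven days before readout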
- assay method text: Anticancer human tumor 349418-098-R-PDC patient-derived lung adenocarcinoma cell line growth inhibition; active means viability on the fitted dose curve at most 10% of control; inactive means the rest
- experimental parameters: second compound 3.16 µM; first compound 0.1 µM
Outcome codes: true (active), false (inactive)

INSERT INTO assay_data (compound, target_entity, class_label) VALUES
  ('CC[C@@]1(O)C(=O)OCc2c1cc1n(c2=O)Cc2cc3c(CN(C)C)c(O)ccc3nc2-1 + NC1CC1c1ccc(-c2cccc(O)c2)cc1', '349418-098-R-PDC complex spheroid viability', 'true'),
  ('Nc1ncn(C2CC(O)C(CO)O2)c(=O)n1 (stereo not drawn) + NC1CCC(NC2CC2c2ccccc2)CC1', '349418-098-R-PDC complex spheroid viability', 'false'),
  ('CC1COCCN1c1cc(-c2ccnn2C)c2ccnc(-c3ccn[nH]3)c2n1 (stereo not drawn) + NC1CCC(NC2CC2c2ccccc2)CC1', '349418-098-R-PDC complex spheroid viability', 'true'),
  ('COc1ccc([C@@H](O)c2cc(-c3ncnc4cc(N5CCOCC5)ccc34)c(F)cc2Cl)nn1 + NC1CC1c1ccc(-c2cccc(O)c2)cc1', '349418-098-R-PDC complex spheroid viability', 'false'),
  ('COc1cc(Nc2ncc3c(n2)-c2ccc(Cl)cc2C(c2c(F)cccc2OC)=NC3)ccc1C(=O)O + NC1CC1c1ccc(-c2cccc(O)c2)cc1', '349418-098-R-PDC complex spheroid viability', 'false'),
  ('CC(C)CC(NC(=O)CNC(=O)c1cc(Cl)ccc1Cl)B1OC(=O)CC(CC(=O)O)(C(=O)O)O1 (stereo not drawn) + NC1CCC(NC2CC2c2ccccc2)CC1', '349418-098-R-PDC complex spheroid viability', 'true'),
  ('CC(C)CC(NC(=O)CNC(=O)c1cc(Cl)ccc1Cl)B1OC(=O)CC(CC(=O)O)(C(=O)O)O1 (stereo not drawn) + NC1CC1c1ccc(-c2cccc(O)c2)cc1', '349418-098-R-PDC complex spheroid viability', 'true'),
  ('COc1ccc([C@@H](O)c2cc(-c3ncnc4cc(N5CCOCC5)ccc34)c(F)cc2Cl)nn1 + NC1CCC(NC2CC2c2ccccc2)CC1', '349418-098-R-PDC complex spheroid viability', 'false'),
  ('O=C(c1cc(Cc2n[nH]c(=O)c3ccccc23)ccc1F)N1CCN(C(=O)C2CC2)CC1 + NC1CCC(NC2CC2c2ccccc2)CC1', '349418-098-R-PDC complex spheroid viability', 'false'),
  ('CC(C)c1c(-c2ccccc2)nc2c(C#N)c[nH]n2c1=O + NC1CCC(NC2CC2c2ccccc2)CC1', '349418-098-R-PDC complex spheroid viability', 'false'),
  ('CC1COCCN1c1cc(-c2ccnn2C)c2ccnc(-c3ccn[nH]3)c2n1 (stereo not drawn) + NC1CC1c1ccc(-c2cccc(O)c2)cc1', '349418-098-R-PDC complex spheroid viability', 'true'),
  ('CC1COCCN1c1cc(C2(S(C)(=N)=O)CC2)nc(-c2ccnc3[nH]ccc23)n1 (stereo not drawn) + NC1CCC(NC2CC2c2ccccc2)CC1', '349418-098-R-PDC complex spheroid viability', 'false'),
  ('O=C(C=Cn1cnc(-c2cc(C(F)(F)F)cc(C(F)(F)F)c2)n1)NNc1cnccn1 + NC1CC1c1ccc(-c2cccc(O)c2)cc1', '349418-098-R-PDC complex spheroid viability', 'true');
